The molecules listed here are annotated with their GI50.
System: MDA-MB-435
Test: NCI tumour cell line growth inhibition, 48 h
Active and inactive are the calls of the source. Rule as the data show it: active = GI50 up to about 1.1 µM and inactive = higher.

{"columns": ["molecule", "GI50"],
 "data": [
  ["N#CC(C#N)=C1/C(=C/C=C/C=C/C=C/c2ccc(N3CCCCC3)s2)S(=O)(=O)c2ccccc21", "> 100 µM (inactive)"],
  ["CN(C)c1ccc(-c2c(C#N)c(-c3ccccc3)n(NS(=O)(=O)c3ccccc3)c(=O)c2C#N)cc1", "71.4 µM (inactive)"],
  ["O=S(=O)(O)c1ccc(/N=N/c2ccc(/N=N/c3c(O)c(S(=O)(=O)O)cc4cc(S(=O)(=O)O)ccc34)cc2)cc1", "> 100 µM (inactive)"],
  ["C[C@@H]1C[C@H]2CC[C@H](O2)[C@H](C)C(=O)O[C@@H](C)C[C@@H]2CC[C@@H](O2)[C@@H](C)C(=O)O[C@H](C)C[C@H]2CC[C@H](O2)[C@H](C)C(=O)O[C@@H](C)C[C@@H]2CC[C@@H](O2)[C@@H](C)C(=O)O1", "0.338 µM (active)"],
  ["O=[N+]([O-])c1ccc(C(=S)Nc2ccccc2)o1", "2.58 µM (inactive)"],
  ["c1cc(-c2ccc(-c3ccc(C4=NCCCN4)cc3)o2)ccc1C1=NCCCN1", "33.5 µM (inactive)"],
  ["CCOC(=O)C1(Cc2ccccc2)Cc2ccccc2C1=O (stereo not drawn)", "20 µM (inactive)"],
  ["Cc1ccc(-c2c3nc(c(-c4ccc(C)cc4)c4ccc([nH]4)c(-c4ccc(OCC5COC(C)(C)O5)cc4)c4nc(c(-c5ccc(C)cc5)c5ccc2[nH]5)C=C4)C=C3)cc1 (stereo not drawn)", "> 31.6 µM (inactive)"],
  ["COC(=O)C1Cc2c([nH]c3ccccc23)C(c2cccc(O)c2)N1 (stereo not drawn)", "18.2 µM (inactive)"],
  ["COc1cc2c(cc1OCCCN1CCOCC1)N=C[C@@H]1CCCN1C2=O", "11.8 µM (inactive)"],
  ["O=C(O)c1ccc(C(=O)c2ccccc2)c(C(=O)O)c1", "> 100 µM (inactive)"],
  ["CCC1(OC(=O)CN2CCN(CCO)CC2)C(=O)OCc2c1cc1n(c2=O)Cc2cc3ccccc3nc2-1 (stereo not drawn)", "1.15 µM (inactive)"],
  ["CSc1ccc2c(cc1=O)[C@@H](NC(C)=O)CCc1cc(O)c(O)c(O)c1-2", "10.4 µM (inactive)"],
  ["C=CCc1oc(C)nc1CCCC", "> 100 µM (inactive)"],
  ["Nc1ncnc2c1ncn2[C@@H]1O[C@H](COC(c2ccccc2)(c2ccccc2)c2ccccc2)[C@@H](OC(=S)Oc2ccccc2)[C@@H]1F", "4.03 µM (inactive)"],
  ["C=C[C@]1(C)CC[C@]2(C)C(CC[C@@]3(C)C2C[C@H](O)[C@H](O)[C@@]3(C)O)C1 (stereo partly drawn)", "> 100 µM (inactive)"],
  ["Cc1cc(-c2nc3c(O)cccc3s2)ccc1N", "17.7 µM (inactive)"],
  ["O=C(CCCn1ccnc1[N+](=O)[O-])NCCn1cnc([N+](=O)[O-])n1", "> 100 µM (inactive)"],
  ["CCN(CC)c1nc(NC2CCCCC2)c2nc(N(CC)CC)nc(NC3CCCCC3)c2n1", "> 100 µM (inactive)"],
  ["COc1cc(O)c(C(=O)/C=C/c2ccccc2)c(OC)c1", "4.71 µM (inactive)"],
  ["C[C@@H]1Nc2cc(NC(=O)OCCF)nc(N)c2N=C1c1ccccc1", "< 0.0001 µM (active)"],
  ["CC[C@@]1(O)C(=O)OCc2c1cc1n(c2=O)Cc2c-1nc1ccccc1c2CC[Si](C)(C)C", "< 0.01 µM (active)"],
  ["CNc1ccc([S+]([O-])Nc2ccc(OC)cc2)cc1 (stereo not drawn)", "14.2 µM (inactive)"],
  ["O=C(N/N=C(COc1cccc(Cl)c1)\\N=C\\c1cccnc1)c1ccncc1", "> 100 µM (inactive)"],
  ["Cc1c2c(n(CCc3ccc(Cl)cc3)c1C)NN=C(C#N)S2(=O)=O", "42.2 µM (inactive)"],
  ["CCOC(=O)C1CCCCN1CCc1c[nH]c2ccccc12 (stereo not drawn)", "> 100 µM (inactive)"],
  ["O=C(NC1CCCCC1NC(c1ccccc1)(c1ccccc1)c1ccccc1)C(=O)NC1CCCCC1NC(c1ccccc1)(c1ccccc1)c1ccccc1 (stereo not drawn)", "> 100 µM (inactive)"],
  ["CCCCC(=O)c1ccc2ccccc2c1O", "> 100 µM (inactive)"],
  ["Cc1ccc(Cc2nnc(S)[nH]2)cc1", "> 100 µM (inactive)"],
  ["Cc1cc(C)nc(NS(=O)(=O)c2ccc(NC(=O)NC(F)(F)F)cc2)n1", "> 100 µM (inactive)"],
  ["CC(=O)O[C@H]1CC[C@@]2(C)C(=CC[C@@H]3[C@@H]2CC[C@]2(C)Nc4c(cnn4S(C)(=O)=O)C[C@@H]32)C1", "46.8 µM (inactive)"],
  ["COc1ccc(C(SCCO)(c2ccccc2)c2ccccc2)cc1", "10.5 µM (inactive)"],
  ["COc1ccc(/C=N/n2c(Cc3ccc(Cl)cc3)n[nH]c2=O)c(OC)c1", "36.8 µM (inactive)"],
  ["N=C(Nc1nc(-c2ccccn2)cc2ccccc12)c1ccccn1", "0.12 µM (active)"],
  ["O=c1[nH]nc(-c2ccccc2)c2[nH]c(-c3ccccc3)cc12", "> 100 µM (inactive)"],
  ["CC(/C=C/c1ccccc1)=N\\NC(=S)N/N=C(C)/C=C/c1ccccc1", "15.5 µM (inactive)"],
  ["C=Cc1ccccc1C1C(C(=O)OCC)=C(C)N=C2OC(C(=O)OC)C(=O)N21 (stereo not drawn)", "> 100 µM (inactive)"],
  ["CC(C)(C)c1cc(C(=O)/C=C/c2c(Cl)cccc2Cl)cc(C(C)(C)C)c1O", "15.5 µM (inactive)"]
]}
